- TARGET ENTITY: TNF-α converting enzyme (TACE) (Homo sapiens, UniProt P78536)
- Sequence (P78536 215-824, species assumed): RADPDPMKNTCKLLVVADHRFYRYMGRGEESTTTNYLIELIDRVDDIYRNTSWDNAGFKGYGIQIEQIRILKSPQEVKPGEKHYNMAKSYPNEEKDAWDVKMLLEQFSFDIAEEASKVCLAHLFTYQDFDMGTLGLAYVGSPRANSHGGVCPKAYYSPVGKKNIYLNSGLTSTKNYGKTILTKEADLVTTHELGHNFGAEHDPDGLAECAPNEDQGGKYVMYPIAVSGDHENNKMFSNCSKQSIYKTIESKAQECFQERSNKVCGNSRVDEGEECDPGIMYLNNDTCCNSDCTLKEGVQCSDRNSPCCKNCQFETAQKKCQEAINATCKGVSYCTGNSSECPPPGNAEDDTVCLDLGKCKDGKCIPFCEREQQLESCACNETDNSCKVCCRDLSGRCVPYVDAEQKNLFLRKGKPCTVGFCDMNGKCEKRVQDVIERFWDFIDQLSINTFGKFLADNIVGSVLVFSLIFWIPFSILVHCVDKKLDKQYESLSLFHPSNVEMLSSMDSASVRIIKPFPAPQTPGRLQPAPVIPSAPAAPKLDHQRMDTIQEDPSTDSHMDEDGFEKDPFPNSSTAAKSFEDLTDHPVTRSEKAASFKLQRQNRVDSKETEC
- TEST NAME: TACE inhibition (fluorescent peptidyl substrate)
- Format: biochemical
- SETUP CONDITIONS: IC 50 nM (In Vitro Inhibition of TACE), Table 15
QUANTITY MEASURED: IC50 (nM)

Known IC50 results, listed for orientation:
CC#CCOc1ccc(S(=O)(=O)N[C@H](CCCN)C(=O)NO)cc1    25
CC#CCOc1ccc(S(=O)(=O)N[C@H](CCCCNC(=O)Cc2ccccc2)C(=O)NO)cc1    3.39

1 = CC#CCOc1ccc(S(=O)(=O)N[C@@H](COCc2ccccc2)C(=O)NO)cc1
2 = CC#CCOc1ccc(S(=O)(=O)N2Cc3ccccc3C[C@@H]2C(=O)NO)cc1
3 = CC#CCOc1ccc(S(=O)(=O)N[C@@H](C(=O)NO)[C@H](C)O)cc1
Prompt line: Please list these in order of increasing IC50. Thank you! Write the labels out in the order the request specifies.
Response line: 2, 3, 1
(2: 6.9 nM, 3: 11.8 nM, 1: 283 nM)

A = CC#CCOc1ccc(S(=O)(=O)N[C@H](CCCNC(=O)c2cnc3ccccc3c2)C(=O)NO)cc1
B = CC#CCOc1ccc(S(=O)(=O)N[C@@H](C(=O)NO)C2CCCCC2)cc1
Prompt line: Smaller IC50 value, A vs B ? State the label of the item chosen.
Response line: A

* * *

- TARGET ENTITY: MMP-1 (Homo sapiens, UniProt P03956)
- Sequence (P03956 100-469): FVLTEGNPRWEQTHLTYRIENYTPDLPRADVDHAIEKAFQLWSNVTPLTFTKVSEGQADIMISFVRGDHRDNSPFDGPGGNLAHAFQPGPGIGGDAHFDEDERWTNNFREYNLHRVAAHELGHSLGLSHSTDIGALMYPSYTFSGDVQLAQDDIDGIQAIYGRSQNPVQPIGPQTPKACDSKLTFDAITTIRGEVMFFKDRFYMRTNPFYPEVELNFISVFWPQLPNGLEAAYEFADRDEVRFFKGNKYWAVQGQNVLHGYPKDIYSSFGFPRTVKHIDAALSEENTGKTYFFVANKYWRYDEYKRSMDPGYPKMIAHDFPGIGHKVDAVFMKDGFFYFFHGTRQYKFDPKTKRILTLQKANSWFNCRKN
- TEST NAME: MMP-1 inhibition (thiopeptide or fluorescent peptide substrate)
- Type: biochemical
- SETUP CONDITIONS: read-out: MMP-1 IC50
QUANTITY MEASURED: IC50 (nM)

Known IC50 results, listed for orientation:
CC#CCOc1ccc(S(=O)(=O)N(CCCCN(CC)CC)C(C(=O)NO)C(C)C)cc1 (centres unmarked) [Example 121]    120
CC#CCOc1ccc(S(=O)(=O)N(Cc2cccnc2)C2(C(=O)NO)CCCCC2)cc1 [Example 137]    482
CC#CCOc1ccc(S(=O)(=O)N(C)C(C(=O)NO)C(C)(C)SCC)cc1 (centres unmarked) [Example 150]    25

A = CC#CCOc1ccc(S(=O)(=O)N(C)C(C(=O)NO)c2ccc(OCCN3CCCC3=O)cc2)cc1 (centres unmarked) [Example 184]
B = CC#CCOc1ccc(S(=O)(=O)N(C)C(C(=O)NO)c2ccc(OCCN3CCN(C(=O)OC(C)(C)C)CC3)cc2)cc1 (centres unmarked) [Example 185]
C = CC#CCOc1ccc(S(=O)(=O)N(CC)C(C(=O)NO)C(C)C)cc1 (centres unmarked) [Example 108]
Prompt line: Hey, quick one: sort these by IC50, largest value first please. Write the labels out in the order the request specifies.
Response line: B, A, C
(B: 839 nM, A: 434 nM, C: 92 nM)

* * *

- TARGET ENTITY: MMP-1 (Homo sapiens)
- TEST NAME: MMP-1 inhibition (thiopeptide or fluorescent peptide substrate)
- Assay type: biochemical
- SETUP CONDITIONS: read-out: MMP-1 IC50
QUANTITY MEASURED: IC50 (µM)

CC#CCOc1ccc(S(=O)(=O)N(C)C(C(=O)NO)c2ccc(OC)cc2)cc1 (stereo not shown) [Example 178]    0.482
CC#CCOc1ccc(S(=O)(=O)N(C)C(CCCSc2ccc(Cl)cc2)C(=O)NO)cc1 (stereo not shown) [Example 213]    0.453
CC#CCOc1ccc(S(=O)(=O)N(C)C(C(=O)NO)c2ccc(OCCCNS(C)(=O)=O)cc2)cc1 (stereo not shown) [Example 197]    0.569
CC#CCOc1ccc(S(=O)(=O)N2CCN(C(=O)C(C)(CO)CO)CC2C(=O)NO)cc1 (stereo not shown) [Example 232]    1.68

* * *

- TARGET ENTITY: TNF-α converting enzyme (TACE) (Homo sapiens)
- TEST NAME: TACE inhibition (fluorescent peptidyl substrate)
- Type: biochemical
- SETUP CONDITIONS: Table 11; read-out: TACE IC50
pIC50: −log10 of the molar value. Counter-ions that a name gives are not always drawn.
QUANTITY MEASURED: pIC50

Known pIC50 results, listed for orientation:
CC#CCOc1ccc(S(=O)(=O)N2C[C@H](CC(=O)OC(C)(C)C)SC(C)(C)[C@@H]2C(=O)NO)cc1    6.63
CC#CCOc1ccc(S(=O)(=O)N2C[C@H](C)SC(C)(C)[C@@H]2C(=O)NO)cc1    7.62
CC#CCOc1ccc(S(=O)(=O)N2C=CSC(C)(C)[C@@H]2C(=O)NO)cc1    7.80
CC#CCOc1ccc(S(=O)(=O)N2[C@H](C)CSC(C)(C)[C@@H]2C(=O)NO)cc1    7.35
CC#CCOc1ccc(S(=O)(=O)N2C[C@H](CC(=O)N3CCOCC3)SC(C)(C)[C@@H]2C(=O)NO)cc1    7.02
CC#CCOc1ccc(S(=O)(=O)N2C[C@H](CC(N)=O)SC(C)(C)[C@@H]2C(=O)NO)cc1    7.38

I = CC#CCOc1ccc(S(=O)(=O)N2C[C@@H](CN)SC(C)(C)[C@@H]2C(=O)NO)cc1 [Example 275, Hydrochloride]
II = CC#CCOc1ccc(S(=O)(=O)N2C[C@H](CN)SC(C)(C)[C@@H]2C(=O)NO)cc1 [Example 276, Hydrochloride]
Prompt line: Smaller pIC50 value, I vs II ? State the label of the item chosen.
Response line: I
(I: 6.89, II: 7.24)

* * *

- TARGET ENTITY: MMP-1 (Homo sapiens, UniProt P03956)
- TEST NAME: MMP-1 inhibition (thiopeptide or fluorescent peptide substrate)
- Assay type: biochemical
- SETUP CONDITIONS: Table 10; read-out: MMP-1 IC50
pIC50: −log10 of the molar value.
QUANTITY MEASURED: pIC50

Known pIC50 results, listed for orientation:
CC1(C)SCCN(S(=O)(=O)c2ccc(OCC#CCCO)cc2)C1C(=O)NO (centres unmarked) [Example 244]    7.46
CC(=O)OCCCCC#CCOc1ccc(S(=O)(=O)N2CCSC(C)(C)[C@@H]2C(=O)NO)cc1 [Example 268]    7.54

1 = CC1(C)SCCN(S(=O)(=O)c2ccc(OCC#CCCN)cc2)C1C(=O)NO (centres unmarked) [Example 246]
2 = CC1(C)SCCN(S(=O)(=O)c2ccc(OCC#CCF)cc2)[C@H]1C(=O)NO [Example 264]
Prompt line: Smaller pIC50 value, 1 vs 2 ? State the label of the item chosen.
Response line: 1

* * *

- TARGET ENTITY: MMP-1 (Homo sapiens, UniProt P03956)
- TEST NAME: MMP-1 inhibition (thiopeptide or fluorescent peptide substrate)
- Format: biochemical
- SETUP CONDITIONS: Table 10; read-out: MMP-1 IC50
pIC50: −log10 of the molar value.
QUANTITY MEASURED: pIC50

CC1(C)SCCN(S(=O)(=O)c2ccc(OCC#CCCCO)cc2)C1C(=O)NO (stereo not drawn)    6.80

a = CC(C)(C)OC(=O)NCCCCC#CCOc1ccc(S(=O)(=O)N2CCSC(C)(C)[C@@H]2C(=O)NO)cc1
b = CC1(C)SCCN(S(=O)(=O)c2ccc(OCC#CCOCc3ccccc3)cc2)C1C(=O)NO (stereo not drawn)
Prompt line: Endpoint returns whichever of a and b has the numerically higher pIC50. State the label of the item chosen.
Response line: b
(b: 7.28, a: 7.06)

* * *

- TARGET ENTITY: MMP-13 (Homo sapiens)
- TEST NAME: MMP-13 inhibition (thiopeptide or fluorescent peptide substrate)
- Assay type: biochemical
- SETUP CONDITIONS: Table 10; read-out: MMP-13 IC50
QUANTITY MEASURED: IC50 (nM)

Known IC50 results, listed for orientation:
CC1(C)SCCN(S(=O)(=O)c2ccc(OCC#CCCCCN)cc2)[C@H]1C(=O)NO    7.3
CC1(C)SCCN(S(=O)(=O)c2ccc(OCC#CCCN)cc2)C1C(=O)NO (stereo not shown)    27
CC1(C)SCCN(S(=O)(=O)c2ccc(OCC#CCCCOC3CCCCO3)cc2)C1C(=O)NO (stereo not shown)    7.3
CC(=O)OCC#CCOc1ccc(S(=O)(=O)N2CCSC(C)(C)[C@@H]2C(=O)NO)cc1    1.1

1 = CC(=O)OCCCCC#CCOc1ccc(S(=O)(=O)N2CCSC(C)(C)[C@@H]2C(=O)NO)cc1
2 = CC1(C)SCCN(S(=O)(=O)c2ccc(OCC#CC#CCO)cc2)[C@H]1C(=O)NO
Prompt line: Endpoint returns whichever of 1 and 2 has the numerically higher IC50. State the label of the item chosen.
Response line: 2

* * *

Reported melting point values for a set of compounds

CC#CCOc1ccc(S(=O)(=O)NC(C(=O)NO)c2ccc(OCCN(C)C(=O)OC(C)(C)C)cc2)cc1 (stereo not shown)    90 to 92 °C

Prompt line: Requested read-out: melting point. Entry: CC#CCOc1ccc(S(=O)(=O)N2CCOCC2C(=O)NO)cc1 (stereo not shown)
Response line: 68 to 72 °C

Prompt line: Requested read-out: melting point. Entry: CC#CCOc1ccc(S(=O)(=O)NC(C(=O)NO)C(C)(C)SCC)cc1 (stereo not shown)
Response line: 46 to 50 °C

Prompt line: Requested read-out: melting point. Entry: CC#CCOc1ccc(S(=O)(=O)N2CCSC3(CCN(C)CC3)C2C(=O)NO)cc1 (stereo not shown)
Response line: 195 to 198 °C
